Assay: yeast display, Sf9 membrane polyspecificity reagent, FACS + sequencing; frameworks hold sequencing errors
QUANTITY_NAME: polyreactivity (PSR sort gate)

These recorded examples may help you get a feel for the data.
{"SEQUENCE_RECORD": "QVQLVESGGGLVQAGGSLRLSCAASGSIFERNAMGWYRQAPGKERELVAAISWSSARTYYADSVKGRFTISRDNAKNTVYLQMNSLKPEDTAVYYCAARVWNEGVRYDYWGQGTQVTVSS", "polyreactivity (PSR sort gate)": "high polyreactivity"}
{"SEQUENCE_RECORD": "QEQLQESGGGQVQAGGSLLLSCAASGNIIRYYYMGWYRQAPGKERELVAAITYGTSTNYADSVKGRFTISRDNATNTEFLQMNSLKPEDTAVYYCAVDVNYGDPIDNWGQGTQVTVSS", "polyreactivity (PSR sort gate)": "high polyreactivity"}
{"SEQUENCE_RECORD": "QVQLVESGGGLVQAGGSLCLSCAASGRTFIRNAMGWYRPAPGKERELVAAINSGGITNYADSVKGRFTISRDNAKNTVYLQMNSLKPEDTALYYCNARQVLYGLYLRAYPYEYWGQGTQVTVSS", "polyreactivity (PSR sort gate)": "low polyreactivity"}
{"SEQUENCE_RECORD": "IIQAGGSLRLSCAASVRTFSGYAMGWYRQAPGKERELIADITSGGSTYYADSVKGRFTISRDNAKNTVYLQMNSLKPEDTAVFYCCRDDRLAGDYWGQGTQVNVSS", "polyreactivity (PSR sort gate)": "low polyreactivity"}
{"SEQUENCE_RECORD": "QVQLVESGGGLVQAGGSLRLSCAASGRIFVSYAMGWYRQAPGKERELVAAINWNGDRTYYADSVKGRFTISRDNAKNTVYLQMNSLKPEDSAVYYCNTDSILLPYDYWGQGTQVTVSS", "polyreactivity (PSR sort gate)": "low polyreactivity"}

Batch of 4 sequences: report polyreactivity (PSR sort gate) for each.
1. QVQLLESGGGLVQAGGSVRLSCAASGFTYRYYAMGWYRQEPGKERELVASISFSGTRTYYADSVKGRFTISRDNAKNTVFLQMNSLKPHDTAVDYCNACLYSRYEFDYWGQGSQVTVSS
2. QVQLVESGGALVQAGGSLRLSCAASRITFTDNAMGWYRQAPGKERELVAAISSGASTYYADSVKGRFTISRDNAKNTVYLQMNSLKPEDSAVYYCATRQTYNYPWHYRYYYWGQGTQVTVSS
3. QVQLLESGGGLVQAGGSLRLSCAASGSTFPRNAMGWYRQAPGKERELVATITSSGGGTYYADSVKGRFTISRDNAKNTVYLQMNSLKPEDTAVDYCNADGPAGDAFDYWGQGTQVTVSS
4. QVQLVESGGGLVQAGGSLRLSCAASGLIFVPYAMGWYRQAPGKERELVATISARGASTYYADSVKGRFTISRDNAKNTVYLQMNSLKPEDTAVYYCATRNYGRASYDYWGQGTQVTVSS

Response:
high polyreactivity
high polyreactivity
low polyreactivity
high polyreactivity

Batch of 2 sequences: report polyreactivity (PSR sort gate) for each.
1. QVQLVESGGGLVQAGGSLRLSCAASGRIFVRYAKGWYRQAPGKERELVAAISRSGGSTYYADSVKGRFTISRDNAKNTVYLQMNSLKPEDTAVYYCNAAYWRRYYQLEDYWGQGTQVTVSS
2. QVQLVESVGGLVQAGGSLRLSCAASGFIFKSYSMGWYRQAPGKERELVAAISGRGGSTYYADSVKGRFTISRDNAKNTVYLQMNSLKPEDTAVYYCNVVPSTYYQYDYWGQGTQVTVSS

Response:
1: high polyreactivity; 2: high polyreactivity
